# studyTarget: Transient receptor potential cation channel subfamily V member 4 (Homo sapiens, UniProt Q9HBA0)
# Sequence (Q9HBA0 whole entry): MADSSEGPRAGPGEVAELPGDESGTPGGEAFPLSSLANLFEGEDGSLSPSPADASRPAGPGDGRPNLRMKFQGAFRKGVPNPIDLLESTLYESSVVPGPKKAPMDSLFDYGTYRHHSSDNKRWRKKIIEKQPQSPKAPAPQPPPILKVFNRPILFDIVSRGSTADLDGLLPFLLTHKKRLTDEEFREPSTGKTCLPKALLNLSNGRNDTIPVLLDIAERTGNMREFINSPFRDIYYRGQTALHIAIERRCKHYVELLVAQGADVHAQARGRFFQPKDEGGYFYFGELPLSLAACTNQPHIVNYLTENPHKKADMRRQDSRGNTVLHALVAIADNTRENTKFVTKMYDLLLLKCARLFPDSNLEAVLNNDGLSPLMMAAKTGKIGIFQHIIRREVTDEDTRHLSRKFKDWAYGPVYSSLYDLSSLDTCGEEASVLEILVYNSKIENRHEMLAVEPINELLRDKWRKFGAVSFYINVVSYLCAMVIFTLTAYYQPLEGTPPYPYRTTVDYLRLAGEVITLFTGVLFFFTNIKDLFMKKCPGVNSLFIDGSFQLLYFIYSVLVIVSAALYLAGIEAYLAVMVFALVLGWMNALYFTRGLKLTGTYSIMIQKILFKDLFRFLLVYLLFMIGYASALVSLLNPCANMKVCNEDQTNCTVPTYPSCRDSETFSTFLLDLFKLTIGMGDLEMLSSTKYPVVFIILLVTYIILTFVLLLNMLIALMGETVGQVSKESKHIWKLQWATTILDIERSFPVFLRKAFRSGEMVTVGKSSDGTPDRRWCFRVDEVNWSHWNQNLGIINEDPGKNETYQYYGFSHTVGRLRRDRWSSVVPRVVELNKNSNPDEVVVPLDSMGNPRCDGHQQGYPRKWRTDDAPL
# methodSummary: Agonist activity at human TRPV4
pEC50: −log10 of the molar value.
measurementKind: pEC50

// pEC50 lookup, compound = `N#Cc1ccc2c(c1)C[C@H](CO)N[C@@H]2c1cc(F)cc(Cl)c1` , result: < 4.80

###

# studyTarget: Transient receptor potential cation channel subfamily A member 1 (Homo sapiens, UniProt O75762)
# Sequence (O75762 whole entry): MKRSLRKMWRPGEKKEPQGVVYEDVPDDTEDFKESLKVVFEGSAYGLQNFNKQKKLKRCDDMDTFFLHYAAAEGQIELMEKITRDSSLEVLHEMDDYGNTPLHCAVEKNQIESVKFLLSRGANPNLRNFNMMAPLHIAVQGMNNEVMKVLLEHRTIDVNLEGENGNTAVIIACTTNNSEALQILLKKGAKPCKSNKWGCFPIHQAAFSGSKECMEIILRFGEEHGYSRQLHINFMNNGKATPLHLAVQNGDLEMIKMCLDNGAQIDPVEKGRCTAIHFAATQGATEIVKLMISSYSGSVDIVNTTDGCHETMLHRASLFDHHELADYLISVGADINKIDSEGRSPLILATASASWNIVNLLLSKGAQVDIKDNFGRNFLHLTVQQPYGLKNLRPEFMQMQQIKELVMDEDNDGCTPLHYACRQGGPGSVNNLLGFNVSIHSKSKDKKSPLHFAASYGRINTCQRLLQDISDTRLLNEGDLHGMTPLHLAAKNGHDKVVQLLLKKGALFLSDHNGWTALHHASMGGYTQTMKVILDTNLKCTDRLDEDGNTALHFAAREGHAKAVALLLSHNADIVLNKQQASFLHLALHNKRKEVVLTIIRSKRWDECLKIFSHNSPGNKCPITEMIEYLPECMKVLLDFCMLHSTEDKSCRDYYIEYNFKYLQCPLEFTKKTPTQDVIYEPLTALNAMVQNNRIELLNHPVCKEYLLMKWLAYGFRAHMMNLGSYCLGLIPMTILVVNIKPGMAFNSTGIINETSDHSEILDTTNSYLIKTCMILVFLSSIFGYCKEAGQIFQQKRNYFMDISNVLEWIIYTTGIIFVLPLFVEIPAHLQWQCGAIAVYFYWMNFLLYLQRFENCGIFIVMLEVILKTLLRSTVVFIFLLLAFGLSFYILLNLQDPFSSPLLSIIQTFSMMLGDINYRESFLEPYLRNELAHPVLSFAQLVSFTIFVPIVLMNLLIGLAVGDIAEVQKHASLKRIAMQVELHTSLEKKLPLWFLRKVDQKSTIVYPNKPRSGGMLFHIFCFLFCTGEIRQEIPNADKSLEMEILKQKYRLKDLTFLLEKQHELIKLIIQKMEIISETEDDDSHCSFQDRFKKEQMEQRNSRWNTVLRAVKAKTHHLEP
# methodSummary: Agonist activity at human TRPA1 expressed in HEK cells assessed as increase in intracellular calcium level measured for 5 mins by FLIPR assay
# Assay type: cell-based
measurementKind: EC50

// EC50 lookup, compound = `N#Cc1ccc2c(c1)C[C@H](CO)N[C@@H]2c1cc(F)cc(Cl)c1` , result: > 15.8 µM
